These data points were gathered from patent US20110118131A1.

# ASSAY SYSTEM: T1, IL-1β (UniProt P01584 117-269)
# T1 construct: Antigen immobilised on the Biacore chip
# ASSAY REMARKS: Biacore, periplasmic extract
READOUT NAME: binding result

BINDER	REPORTED VALUE
XPA23 light chain H49T (Fab, V domains shown) VH: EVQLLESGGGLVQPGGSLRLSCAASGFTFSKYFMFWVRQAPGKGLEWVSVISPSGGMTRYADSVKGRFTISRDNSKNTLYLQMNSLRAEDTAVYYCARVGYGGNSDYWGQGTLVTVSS VL: DIQMTQSPSSVSASVGDRLTIICRASQDINRWLAWYQQTPGNAPKLLITSATSLQSGVPSRFSGSGSGTDFTLTINSLQPEDFATYYCQQADSFPLTFGGGTKVEIK	no binding
XPA23 light chain A91Y (Fab, V domains shown) VH: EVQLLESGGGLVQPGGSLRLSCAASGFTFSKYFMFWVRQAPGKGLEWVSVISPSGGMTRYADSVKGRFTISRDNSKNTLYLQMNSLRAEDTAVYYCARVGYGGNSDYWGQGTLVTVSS VL: DIQMTQSPSSVSASVGDRLTIICRASQDINRWLAWYQQTPGNAPKLLIHSATSLQSGVPSRFSGSGSGTDFTLTINSLQPEDFATYYCQQYDSFPLTFGGGTKVEIK	no binding
